Here the recorded IC50 is given for each entry.
Biological target: BCL-2 (Homo sapiens, UniProt P10415)
Sequence (P10415 whole entry): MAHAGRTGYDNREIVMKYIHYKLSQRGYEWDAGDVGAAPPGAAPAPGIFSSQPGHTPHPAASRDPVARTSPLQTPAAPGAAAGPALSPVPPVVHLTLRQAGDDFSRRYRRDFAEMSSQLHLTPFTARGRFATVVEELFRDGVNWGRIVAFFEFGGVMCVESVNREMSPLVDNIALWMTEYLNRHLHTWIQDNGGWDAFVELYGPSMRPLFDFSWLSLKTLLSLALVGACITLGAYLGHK
Assay: HTRF BCL-2/BAK assay (Cisbio)
Settings: recombinant human Tag1-BCL-2 2 nM, Tag2-BAK 10 nM

O=C(NS(=O)(=O)c1ccc(NCC2CCOCC2)c([N+](=O)[O-])c1)c1ccc(N2CCN(C3CCCCc4c(C5CCCC5)cccc43)CC2)cc1Oc1cnc2[nH]ccc2c1 (centres unmarked) | 20 to 200 nM
O=C(NS(=O)(=O)c1ccc(NCC2CC3(CCN(CC(F)(F)F)CC3)C2)c([N+](=O)[O-])c1)c1ccc(N2CCN([C@@H]3CCCCc4c(Cl)cccc43)CC2)cc1Oc1cnc2[nH]ccc2c1 | < 20 nM
Cc1ccc(S(=O)(=O)N2CCc3ccccc3C(N3CCN(c4ccc(C(=O)NS(=O)(=O)c5ccc(NCC6CCOCC6)c([N+](=O)[O-])c5)c(Oc5cnc6[nH]ccc6c5)c4)CC3)C2)cc1 (centres unmarked) | 20 to 200 nM
O=C(NS(=O)(=O)c1ccc(NCC2CCN(C3COC3)CC2)c([N+](=O)[O-])c1)c1ccc(N2CCN([C@@H]3CCCCc4c(Cl)cccc43)CC2)cc1Oc1cnc2[nH]ccc2c1 | < 20 nM

// fetch IC50 for O=C(NS(=O)(=O)c1ccc(NCC2CC3(CCC(O)CC3)C2)c([N+](=O)[O-])c1)c1ccc(N2CCN([C@@H]3CCCCc4c(Cl)cccc43)CC2)cc1Oc1cnc2[nH]ccc2c1 (some centres unmarked) ; system: BCL-2 (Homo sapiens, UniProt P10415)
< 20 nM

Under BCL-2 (Homo sapiens, UniProt P10415): report IC50 of O=C(NS(=O)(=O)c1ccc(NCC2CCOCC2)c([N+](=O)[O-])c1)c1ccc(N2CCN(C3CCCc4cccc(-c5ccc(Cl)cc5)c43)CC2)cc1Oc1cnc2[nH]ccc2c1 (centres unmarked) .
< 20 nM

Fill in: IC50 on BCL-2 (Homo sapiens, UniProt P10415), entry Cc1ccc(S(=O)(=O)N2CCCC(N3CCN(c4ccc(C(=O)NS(=O)(=O)c5ccc(NCC6CCOCC6)c([N+](=O)[O-])c5)c(Oc5cnc6[nH]ccc6c5)c4)CC3)c3ccccc32)cc1 (centres unmarked)
< 20 nM

Look up BCL-2 (Homo sapiens, UniProt P10415) data: IC50 of CC1(C)CC(CNc2ccc(S(=O)(=O)NC(=O)c3ccc(N4CCN([C@@H]5CCCCc6c(Cl)cccc65)CC4)cc3Oc3cnc4[nH]ccc4c3)cc2[N+](=O)[O-])CCO1 (some centres unmarked) , then report it.
< 20 nM

Give measured IC50 for O=C(NS(=O)(=O)c1cccc([N+](=O)[O-])c1)c1ccc(N2CCN(C3CCOc4ccccc43)CC2)cc1Oc1cnc2[nH]ccc2c1 (centres unmarked) (BCL-2 (Homo sapiens, UniProt P10415)).
200 to 2000 nM

Under BCL-2 (Homo sapiens, UniProt P10415), report IC50 for CN1CCc2ccccc2C(N2CCN(c3ccc(C(=O)NS(=O)(=O)c4ccc(NCC5CCOCC5)c([N+](=O)[O-])c4)c(Oc4cnc5[nH]ccc5c4)c3)CC2)C1=O (centres unmarked)
< 20 nM

Please report the measured IC50 for CCOC(=O)CN1CCC2(CC1)CC(CNc1ccc(S(=O)(=O)NC(=O)c3ccc(N4CCN([C@@H]5CCCCc6c(Cl)cccc65)CC4)cc3Oc3cnc4[nH]ccc4c3)cc1[N+](=O)[O-])C2 tested on BCL-2 (Homo sapiens, UniProt P10415).
< 20 nM

----------
Biological target: BCL-XL (Homo sapiens, UniProt Q07817)
Sequence (Q07817 whole entry): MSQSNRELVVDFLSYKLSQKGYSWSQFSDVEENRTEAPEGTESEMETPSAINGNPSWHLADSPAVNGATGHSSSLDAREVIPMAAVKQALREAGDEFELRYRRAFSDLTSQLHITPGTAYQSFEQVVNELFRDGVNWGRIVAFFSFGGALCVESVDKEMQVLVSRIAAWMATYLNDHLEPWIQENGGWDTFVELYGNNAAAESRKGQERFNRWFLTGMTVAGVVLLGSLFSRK
Experiment: HTRF BCL-XL/BAK assay (Cisbio)
Settings: recombinant human Tag1-BCL-XL 2 nM, Tag2-BAK 5 nM
pIC50: −log10 of the molar value.
MEASUREMENT KIND: pIC50

See these solved cases before continuing.
CC1(C)COCCC1CNc1ccc(S(=O)(=O)NC(=O)c2ccc(N3CCN([C@@H]4CCCCc5c(Cl)cccc54)CC3)cc2Oc2cnc3[nH]ccc3c2)cc1[N+](=O)[O-] (stereo partly shown) | 6.70 to 7.70
CCN1CCC2(CC1)CC(CNc1ccc(S(=O)(=O)NC(=O)c3ccc(N4CCN([C@@H]5CCCCc6c(Cl)cccc65)CC4)cc3Oc3cnc4[nH]ccc4c3)cc1[N+](=O)[O-])C2 | > 7.70
CN1CC2CC1CC2CNc1ccc(S(=O)(=O)NC(=O)c2ccc(N3CCN(C4CCCCc5c(Cl)cccc54)CC3)cc2Oc2cnc3[nH]ccc3c2)cc1[N+](=O)[O-] (stereo not shown) | > 7.70
CN1CCC(CNc2ccc(S(=O)(=O)NC(=O)c3ccc(N4CCN(C5CCCCc6c(Cl)cccc65)CC4)cc3Oc3cnc4[nH]ccc4c3)cc2[N+](=O)[O-])CC1 (stereo not shown) | > 7.70
O=C(NS(=O)(=O)c1ccc(NCC2CCOCC2)c([N+](=O)[O-])c1)c1ccc(N2CCN(C3CCCCc4ccc(Br)cc43)CC2)cc1Oc1cnc2[nH]ccc2c1 (stereo not shown) | < 5.70

Would you kindly look at the next entry?
Under BCL-XL (Homo sapiens, UniProt Q07817): report pIC50 of CC(C)(C)OC(=O)NCCN1CCC2(CC1)CC(CNc1ccc(S(=O)(=O)NC(=O)c3ccc(N4CCN([C@@H]5CCCCc6c(Cl)cccc65)CC4)cc3)cc1[N+](=O)[O-])C2 .
5.70 to 6.70

----------
Recorded pIC50, one value per entry.
Target: UniProt P10415
Assay: HTRF BCL-2/BAK assay (Cisbio)
Settings: recombinant human Tag1-BCL-2 2 nM, Tag2-BAK 10 nM
pIC50: −log10 of the molar value.

Example compounds with recorded pIC50:
O=C(NS(=O)(=O)c1ccc(NCC2CCOCC2)c([N+](=O)[O-])c1)c1ccc(N2CCN([C@@H]3CCCCc4c(Cl)cccc43)CC2)cc1Oc1cnc2[nH]ccc2c1 [Compound 70] | > 7.70
O=C(NS(=O)(=O)c1ccc(NCC2CC3(CCC4(CC3)OCCO4)C2)c([N+](=O)[O-])c1)c1ccc(N2CCN([C@@H]3CCCCc4c(Cl)cccc43)CC2)cc1Oc1cnc2[nH]ccc2c1 [Compound 133] | > 7.70
O=C(NS(=O)(=O)c1ccc(NCC2CC3(CCN(CC(F)F)CC3)C2)c([N+](=O)[O-])c1)c1ccc(N2CCN([C@@H]3CCCCc4c(Cl)cccc43)CC2)cc1Oc1cnc2[nH]ccc2c1 [Compound 113] | > 7.70
O=C(NS(=O)(=O)c1ccc(NC[C@H]2CO[C@H]3OCC[C@@H]23)c([N+](=O)[O-])c1)c1ccc(N2CCN([C@@H]3CCCCc4c(Br)cc(F)cc43)CC2)cc1Oc1cnc2[nH]ccc2c1 (relative stereo) [Compound 82] | > 7.70
CC(C)[C@H](N)C(=O)N1CCC2(CC1)CC(CNc1ccc(S(=O)(=O)NC(=O)c3ccc(N4CCN([C@@H]5CCCCc6c(Cl)cccc65)CC4)cc3Oc3cnc4[nH]ccc4c3)cc1[N+](=O)[O-])C2 [Compound 125] | > 7.70

Fill in: pIC50 on UniProt P10415, entry O=C(NS(=O)(=O)c1ccc(NCC2CC3(CCN(CCO)CC3)C2)c([N+](=O)[O-])c1)c1ccc(N2CCN([C@@H]3CCCCc4c(Cl)cccc43)CC2)cc1Oc1cnc2[nH]ccc2c1 [Compound 121]
> 7.70

Please indicate recorded pIC50 of O=C(NS(=O)(=O)c1ccc(NCC2(O)CCN(C3COC3)CC2)c([N+](=O)[O-])c1)c1ccc(N2CCN([C@@H]3CCCCc4c(Cl)cccc43)CC2)cc1Oc1cnc2[nH]ccc2c1 [Compound 85] measured with UniProt P10415.
> 7.70

Report value: pIC50, system: UniProt P10415, compound: O=C(NS(=O)(=O)c1ccc(NCC2CCC3(CC2)COC3)c([N+](=O)[O-])c1)c1ccc(N2CCN(C3CCCCc4c(Cl)cccc43)CC2)cc1Oc1cnc2[nH]ccc2c1 (centres unmarked) [Compound 38]
> 7.70

Name the recorded pIC50 of O=C(NS(=O)(=O)c1ccc(NCC2CCOCC2)c([N+](=O)[O-])c1)c1ccc(N2CC3(CCN(C4CCCc5ccccc54)CC3)C2)cc1Oc1cnc2[nH]ccc2c1 (centres unmarked) [Compound 92] , assay system UniProt P10415.
6.70 to 7.70

Provide measured pIC50 on UniProt P10415 for O=C(NS(=O)(=O)c1ccc(NCC2CCOCC2)c([N+](=O)[O-])c1)c1ccc(N2CCN(C3CCCCc4c3cccc4[N+](=O)[O-])CC2)cc1Oc1cnc2[nH]ccc2c1 (centres unmarked) [Compound 33] please.
> 7.70

Print UniProt P10415 pIC50 for O=C(NS(=O)(=O)c1ccc(NCC2CC3(COC3)C2)c([N+](=O)[O-])c1)c1ccc(N2CCN([C@@H]3CCCCc4c(Br)cccc43)CC2)cc1Oc1cnc2[nH]ccc2c1 [Compound 77] .
> 7.70

Param request: pIC50 | system UniProt P10415 | item O=C(NS(=O)(=O)c1cccc([N+](=O)[O-])c1)c1ccc(N2CCN(C3CCCc4cccc(-c5cccs5)c43)CC2)cc1Oc1cnc2[nH]ccc2c1 (centres unmarked) [Compound 15]
5.70 to 6.70

Provide pIC50, recorded with UniProt P10415, of O=C(NS(=O)(=O)c1ccc(NCC2CCOCC2)c([N+](=O)[O-])c1)c1ccc(N2CCN([C@@H]3CCCCc4c(Br)cc(F)cc43)CC2)cc1Oc1cnc2[nH]ccc2c1 [Compound 78]
> 7.70

Specify pIC50 for O=C(NS(=O)(=O)c1ccc(NCC2CCOCC2)c([N+](=O)[O-])c1)c1ccc(N2CCN(C3CCCCc4c(-c5cccnc5)cccc43)CC2)cc1Oc1cnc2[nH]ccc2c1 (centres unmarked) [Compound 49] , system UniProt P10415.
> 7.70

Using UniProt P10415 as the test system, report measured pIC50 of O=C(NS(=O)(=O)c1ccc(NCC2CCOCC2)c([N+](=O)[O-])c1)c1ccc(N2CCN(C3CCCCc4c(-c5cn[nH]c5)cccc43)CC2)cc1Oc1cnc2[nH]ccc2c1 (centres unmarked) [Compound 52] .
6.70 to 7.70

With UniProt P10415 as the test system, provide measured pIC50 for this compound: O=C(NS(=O)(=O)c1ccc(NCC2CCOCC2)c([N+](=O)[O-])c1)c1ccc(N2CC3(C2)CN(C2CCCCc4ccccc42)C3)cc1Oc1cnc2[nH]ccc2c1 (centres unmarked) [Compound 95]
6.70 to 7.70

Jot down pIC50 (UniProt P10415) of O=C(NS(=O)(=O)c1ccc(NCC2CC3(COC3)C2)c([N+](=O)[O-])c1)c1ccc(N2CCN([C@@H]3CCCCc4c(Cl)cccc43)CC2)cc1Oc1cnc2[nH]ccc2c1 [Compound 72] .
> 7.70

# return pIC50 for O=C(NS(=O)(=O)c1ccc(NCC2CCOCC2)c([N+](=O)[O-])c1)c1ccc(N2CCN(C3CCCc4ccccc43)CC2)cc1Oc1cnc2[nH]ccc2c1 (centres unmarked) [Compound 2] , test system: UniProt P10415
6.70 to 7.70

State pIC50 (UniProt P10415) of CN1CCC(CNc2ccc(S(=O)(=O)NC(=O)c3ccc(N4CCN(C5CCCCc6c(Cl)cccc65)CC4)cc3Oc3cnc4[nH]ccc4c3)cc2[N+](=O)[O-])CC1 (centres unmarked) [Compound 29] .
> 7.70

// fetch pIC50 for O=C(NS(=O)(=O)c1ccc(NCC2CC3(CCN(CC4CC4)CC3)C2)c([N+](=O)[O-])c1)c1ccc(N2CCN([C@@H]3CCCCc4c(Cl)cccc43)CC2)cc1Oc1cnc2[nH]ccc2c1 [Compound 129] ; system: UniProt P10415
> 7.70

# credit: patent US20240239792A1
